Below, each entry is listed alongside its reported T/C.
System: L1210 leukemia ip in BDF1 mice, survival T/C
Assay: NCI In Vivo Anticancer Drug Screen. Data for tumor model L1210 Leukemia (intraperitoneal) in B6D2F1 (BDF1) mice
Settings: endpoint: mean survival time; dose: 200.0 mg/kg/injection; schedule: Q01DX001 (ip); vehicle: saline with Tween-80; higher = longer survival
Description: The antitumor activity of compounds was measured in mice bearing transplantable tumors. Survival or tumor size were measured and the results are expressed as the measurement made in the treated group (T) divided by the measurement made in the vehicle treated control group (C). The tumor model used in this assay is L1210 Leukemia (intraperitoneal) in B6D2F1 (BDF1) mice
Toxic doses and inconclusive results are not listed.

Answered examples (5):
// query T/C value for entry `CCOC(=O)c1csc(CNC(=O)c2ccccc2)n1`
98 % of control

Next: `N#Cc1csc(CCNC(=O)c2ccccc2)n1`
104 % of control

Next: `OCCCOc1ccccc1`
97 % of control

Next: CC(CC(=O)O)NC(=O)OCc1ccccc1 (stereo unspecified)
98 % of control

Next: `NC(=O)c1cc([N+](=O)[O-])ccc1N1CC[N+](CCCl)=N1`
91 % of control

New cases:
// query T/C value for entry O=[N+]([O-])c1ccc(N/N=C/C(c2ccccc2)c2ccsc2)c([N+](=O)[O-])c1 (stereo unspecified)
96 % of control

Next: `Clc1nc2ncn3ncnc3c2[nH]1`
101 % of control

Next: `S=C(N/N=C/C(c1ccccc1)c1ccccc1)Nc1ccccc1`
102 % of control

Next: `CSCC#N`
96 % of control

Next: CC(=O)OC1CCC2C3CCC4=CC(=O)CCC4(C)C3=CCC12C (stereo unspecified)
95 % of control

Next: `COc1cccc(NC(=S)Nc2cccc(OC)c2)c1`
104 % of control

Next: CCc1cc(C(=O)NC(CCC(=O)O)C(=O)O)ccc1NCc1cnc2nc(N)[nH]c(=O)c2n1 (stereo unspecified)
100 % of control

Next: O=C(/C=C(\c1ccccc1)C1C2C=CC(C2)C1c1ccccc1)c1ccccc1 (stereo unspecified)
95 % of control

Next: CS(=O)(=O)OC1CCC(OS(C)(=O)=O)CC1 (stereo unspecified)
100 % of control

Next: O=P(CCC(O)c1ccccc1)(c1ccccc1)c1ccccc1 (stereo unspecified)
106 % of control

Next: Cc1ccc(S(=O)(=O)N/N=C2/C(=O)C3CCC2C3)cc1 (stereo unspecified)
87 % of control
